test: photoluminescence quantum yield (fraction); solvent given as SMILES; settings: in Cc1ccccc1
Overview of recorded photoluminescence quantum yield for various compounds
QUANTITY_KIND: photoluminescence quantum yield

COMPOUND	VALUE_REPORTED
CCCCCC(CC)C1(C(CC)CCCCC)c2ccccc2-c2ccc(C#Cc3cc(C#Cc4ccc5c(c4)C(C(CC)CCCCC)(C(CC)CCCCC)c4ccccc4-5)c4ccc5c(C#Cc6ccc7c(c6)C(C(CC)CCCCC)(C(CC)CCCCC)c6ccccc6-7)cc(C#Cc6ccc7c(c6)C(C(CC)CCCCC)(C(CC)CCCCC)c6ccccc6-7)c6ccc3c4c65)cc21 (stereo unspecified)	0.67
CCCCCCCCCCCn1cccc1C1=[N+]2C(=Cc3c(C)cc(C)n3[B-]2(F)F)c2ccccc21	0.99
CC(C)(C)c1cc(-c2c3cccc4c5cccc6c(-c7cc(C(C)(C)C)cc(C(C)(C)C)c7)c7cccc8c9cccc2c9c(c34)c(c65)c78)cc(C(C)(C)C)c1	0.81
Oc1ccc2ccccc2c1C1Nc2cccc3cccc(c23)N1	0.33
COc1ccc(C2=CC(c3ccccc3)=[N+]3C2=Nc2c(-c4ccc(OC)cc4)cc(-c4ccccc4)n2[B-]3(F)F)cc1	0.24
CN(CC(O)c1cccc(O)c1)c1ccc([N+](=O)[O-])c(C2CC(c3cccc4ccccc34)=NN2c2ccccc2)c1 (stereo unspecified)	0.18
